Listed sequences paired with reported Tm
- test_summary: melting temperature; fluorescence melt of hairpins on a sequencing array, two-state fit, raised by 9.35 °C to match UV melts
- condition: sodium 0.088 M
measurement_kind: Tm (°C)

seq_text	measurement_kind	value
GCAGGCGCGAAAGCGTGC (((..(((....))))))	Tm	49.4
GTGTTCGGAAACAAACAC (((((.(....).)))))	Tm	37.8
GTTGTCTCGAAAGAGAAC (((..(((....))))))	Tm	46.1
GCGAAAGATCGC ((((....))))	Tm	39.9
GGGCACGAAAGTGACCC ((((((....))).)))	Tm	66.8
GCAGTTGGAAACAACCGC ((.((((....)))).))	Tm	44.1
GGTCTACGAAAGTACACC (((.(((....))).)))	Tm	35.8
GATCCCTTCAGGGATC ((((((....))))))	Tm	68.3
GCGTCCCCGAAAGGGCGC (((..(((....))))))	Tm	65.2
GACCTACCGAAAGGTGTC (((..(((....))))))	Tm	30.8
GATCGTGAAGACGATC ((((((....))))))	Tm	57
GCGGACGAAAGTCCTCGC ((((((....)))..)))	Tm	51.2

###

- test_summary: melting temperature; fluorescence melt of hairpins on a sequencing array, two-state fit, raised by 9.35 °C to match UV melts
- condition: sodium 0.088 M

seq_text	Tm
GCATTGGGAAACCAGTGC (((.(((....))).)))	50.7 °C
GGCACCGGAAACGGTGTC (.(((((....))))).)	59.9 °C
GATCGTTGCACGATC ((((((...))))))	60.7 °C
GCGAACGGTCGC ((((....))))	47.7 °C
GCATCCCCGAAAGGGTGC (((..(((....))))))	53.5 °C
GTGTTCGAAAGAAACAC ((((((....))).)))	47.1 °C
GCGAGTTATCGC ((((....))))	57.6 °C
GCAGCGCGAAAGCTATGC (((..((....))..)))	45.2 °C
GCGAACCGAAAGGTCCGC (((.(((....))).)))	62.8 °C
GACTTCGGAAACGGAGTC ((((.((....)).))))	49.4 °C
GTGCATCGAAAGATCAC (((.(((....))))))	46.8 °C
GTTCGTGGAAACACGGAC ((.((((....)))).))	54.5 °C
GCCGCACGAAAGTGGGC (((.(((....))))))	62.8 °C
GTACCACGAAAGTGTAC (((.(((....))))))	42.3 °C
CGCATCGGAAACGAGGCG (((.(((....))).)))	61.4 °C
GATTCCGAAAGGACATC ((((((....))).)))	39.2 °C
GCGTTCCGAAAGGACGC (((.(((....))))))	63.3 °C
GCGAGTGTTCGC ((((....))))	49 °C
GAACATGGAAACATGTTC (((((((....)))))))	56.2 °C
GACGAACGAAAGTTGTC (((.(((....))))))	44.9 °C
GTATCCGGAAACGGGTAC (((.(((....))).)))	51.3 °C
CCCTTGAAAAAGGG (((((....)))))	47.2 °C
GTAATGGCGAAAGCCTAC (((..(((....))))))	31.3 °C
GGCATGGGAAACTGTGCC ((((..(....)..))))	48.2 °C
GCCTAGCGAAAGCGCGGC (((..((....))..)))	61.9 °C
GGCCCCGAAAGGGATGCC ((((((....)))..)))	56.8 °C

###

- test_summary: folding enthalpy; higher = less favourable; fluorescence melt of hairpins on a sequencing array, two-state fit
- condition: sodium 0.088 M
Recorded measurements of folding enthalpy, one per entry
measurement_kind: folding enthalpy (kcal/mol)

seq_text	unit_of_measurement	value
GCGTGGCGAAAGCTGCGC (((..((....))..)))	kcal/mol	-40.4
GGATCGGGAAACTGATCC (((((.(....).)))))	kcal/mol	-39.1
GTCGAGACGAAAGTCGAC (((..(((....))))))	kcal/mol	-20.9
GCGAAGCGAAAGCTCAGC ((..(((....)))..))	kcal/mol	-7.68
GTATATGCGAAAGCATAC (((..(((....))))))	kcal/mol	-8.89
GAGTAGGAAACTACTC ((((((....))))))	kcal/mol	-30.1
GATCACCACGTGATC ((((((...))))))	kcal/mol	-38.5
GGGAGCGAAAGCTGTCCC ((((((....)))..)))	kcal/mol	-17.2
GGCAACGAAAGTTCAGCC ((((((....)))..)))	kcal/mol	-24.4
CGAACGGAAACGTGTTCG ((((((....)))..)))	kcal/mol	-26.7
GAACGCGAAAGCGGTTC ((((((....))).)))	kcal/mol	-14.3
GCACTTGGAAACGAGTGC (((((.(....).)))))	kcal/mol	-54.9

###

- test_summary: folding enthalpy; higher = less favourable; fluorescence melt of hairpins on a sequencing array, two-state fit
- condition: sodium 0.088 M
Overview of reported folding enthalpy across a group of sequences:
measurement_kind: folding enthalpy

seq_text	measurement_kind	value
GTTCTTGGAAACAAGGAC ((.((((....)))).))	folding enthalpy	-23.9 kcal/mol
GTCGCTCGAAAGAGTGAC (((.(((....))).)))	folding enthalpy	-43.3 kcal/mol
GGTACTGGAAACAGTACC (((((((....)))))))	folding enthalpy	-50.7 kcal/mol
GATTTGGGAAACCAAGTC ((.((((....)))).))	folding enthalpy	-28.7 kcal/mol
GGACACGGAAACGTATCC (((.(((....))).)))	folding enthalpy	-27.4 kcal/mol
CGCTCGGAAACGAGGGCG ((((((....)))..)))	folding enthalpy	-12.4 kcal/mol

###

- test_summary: melting temperature; fluorescence melt of hairpins on a sequencing array, two-state fit, raised by 9.35 °C to match UV melts
- condition: sodium 0.088 M

seq_text	Tm [°C]
GCATCAGCGAAAGCTTGC (((..(((....))))))	41.3
GATCCCCGCGGGATC ((((((...))))))	65.9
GGACCCGAAAGGGGATCC ((((((....)))..)))	51.4
GCTGACGGAAACACCAGC ((((..(....)..))))	33.3
CGTCTACGGAAACGTACG (((..(((....))))))	31.5
GATCCAGGTTTGGATC ((((((....))))))	51.7

###

// folding enthalpy lookup, one value per entry
- test_summary: folding enthalpy; higher = less favourable; fluorescence melt of hairpins on a sequencing array, two-state fit
- condition: sodium 0.088 M

seq_text	unit_of_measurement	folding enthalpy
GTTCACCGAAAGGTAAC (((.(((....))))))	kcal/mol	-16.3
GCATTATCGAAAGATTGC (((..(((....))))))	kcal/mol	-14.4
GGTAACGAAAGTTGGACC ((((((....)))..)))	kcal/mol	-15.5
CGGCGCGGAAACGCCCG (((.(((....))))))	kcal/mol	-16.7
GTCAGGTCGAAAGACGAC (((..(((....))))))	kcal/mol	-16.8
GCCTTGCGAAAGCTAGGC ((((.((....)).))))	kcal/mol	-44.4
GATCCAGAGCTGGATC ((((((....))))))	kcal/mol	-37.6
GTGTGTTCGAAAGAACAC (((..(((....))))))	kcal/mol	-15.7
GCAAGGCGAAAGCGTAGC ((.(.((....)).).))	kcal/mol	-11.6
GCCACACGAAAGTGGGC (((.(((....))))))	kcal/mol	-24.6
GGCATGGGAAACTGTGCC ((((..(....)..))))	kcal/mol	-29.8
GGTGGAGGAAACTCCATC (.(((((....))))).)	kcal/mol	-26.6
GATCTCAACAGAGATC ((((((....))))))	kcal/mol	-44.3
GTTTGGGGAAACCCAAGC (.(((((....))))).)	kcal/mol	-21.9
GATCTGCTTGCAGATC ((((((....))))))	kcal/mol	-40.1
GGCGGGGGAAACCCCGTC (.(((((....))))).)	kcal/mol	-22.7
GCGTCTGGAAACAGATGC ((.((((....)))).))	kcal/mol	-55.5
GTCGTCGGAAACGATGAC (((.(((....))).)))	kcal/mol	-44.4
GATCTCTCCTGAGATC ((((((....))))))	kcal/mol	-39.3
GATCAGCCCACTGATC ((((((....))))))	kcal/mol	-37.6
GATCTTGTGGAAGATC ((((((....))))))	kcal/mol	-29.4
GATCAGGGGACTGATC ((((((....))))))	kcal/mol	-32.5
GTGGTAGGAAACTACCAC (((((((....)))))))	kcal/mol	-54.9
GATCGAGGTTCGATC ((((((...))))))	kcal/mol	-38.6
GCTTCTGGAAACAGAAGC (((((((....)))))))	kcal/mol	-49
